# System: Aspergillus fumigatus
# PROCEDURE TEXT: Antifungal activity against Aspergillus fumigatus NCIM No.902 by serial plate dilution method
# Format: functional
PROPERTY MEASURED: MIC (µg/mL)

INSERT INTO assay_data (chemical_smiles, observed) VALUES
  ('NC(=O)c1cc(-c2csc(N/N=C/c3cc(Cl)cc(Cl)c3Cl)n2)ccc1O', 12.5),
  ('Clc1cc(Cl)c(Cl)c(/C=N/Nc2nc(-c3ccc(-c4ccccc4)cc3)cs2)c1', 6.25),
  ('CSc1ccc(-c2csc(N/N=C/c3cc(Cl)cc(Cl)c3Cl)n2)cc1', 6.25),
  ('Clc1ccc(-c2csc(-c3cc(Cl)cc(Cl)c3Cl)n2)cc1', 6.25),
  ('O=[N+]([O-])c1ccc(-c2csc(-c3cc(Cl)cc(Cl)c3Cl)n2)cc1', 12.5),
  ('NC(=O)c1cc(-c2csc(-c3cc(Cl)cc(Cl)c3Cl)n2)ccc1O', 25),
  ('CN1CCN(Cc2csc(-c3cc(Cl)cc(Cl)c3Cl)n2)CC1', 6.25),
  ('COc1ccc(-c2csc(N/N=C/c3cc(Cl)cc(Cl)c3Cl)n2)cc1', 25),
  ('Clc1cc(Cl)c(Cl)c(-c2nc(CN3CCCCC3)cs2)c1', 25),
  ('Clc1ccc(-c2csc(N/N=C/c3cc(Cl)cc(Cl)c3Cl)n2)cc1', 12.5);
